Format: physicochemical
Details: n-octanol/water, 5000 µM
Below, each of the molecules is paired with its reported Partition Coefficient value.
The answer should be written as a number, with no unit following it.

Example molecules with recorded Partition Coefficient:
>  <molecule>
CC(=O)N(O)CCCCCNC(=O)CCC(=O)N(O)CCCCCNC(=O)CCC(=O)N(O)CCCCCN [Example 4]

>  <Partition Coefficient>
0.121

$$$$
>  <molecule>
CC(=O)N(O)CCCCCNC(=O)CCC(=O)N(O)CCCCCNC(=O)CCC(=O)N(O)CCCCCN [Example 1]

>  <Partition Coefficient>
0.366

$$$$
>  <molecule>
CC(=O)N(O)CCCCCNC(=O)CCC(=O)N(O)CCCCCNC(=O)CCC(=O)N(O)CCCCCN [Example 3]

>  <Partition Coefficient>
0.020

$$$$

I am curious: what Partition Coefficient value has been reported for CC(=O)N(O)CCCCCNC(=O)CCC(=O)N(O)CCCCCNC(=O)CCC(=O)N(O)CCCCCN [Example 2] ?
0.008

Entry CC(=O)N(O)CCCCCNC(=O)CCC(=O)N(O)CCCCCNC(=O)CCC(=O)N(O)CCCCCN [Example 5] : reported Partition Coefficient = ?
0.450

###

Type: physicochemical
Conditions: n-octanol/phosphate buffer, pH 7.4
value.kind: Partition Coefficient
Please reply with the value in numeric form only.

# example entries with known answers
>  <compound>
CC(=O)N(O)CCCCCNC(=O)CCC(=O)N(O)CCCCCNC(=O)CCC(=O)N(O)CCCCCN [Example 4]

>  <measured.number>
0.047

$$$$
>  <compound>
CC(=O)N(O)CCCCCNC(=O)CCC(=O)N(O)CCCCCNC(=O)CCC(=O)N(O)CCCCCN [Example 3]

>  <measured.number>
0.010

$$$$
>  <compound>
CC(=O)N(O)CCCCCNC(=O)CCC(=O)N(O)CCCCCNC(=O)CCC(=O)N(O)CCCCCN [Example 5]

>  <measured.number>
0.028

$$$$
>  <compound>
CC(=O)N(O)CCCCCNC(=O)CCC(=O)N(O)CCCCCNC(=O)CCC(=O)N(O)CCCCCN [Example 2]

>  <measured.number>
0.006

$$$$

Switching to the query record.
Please report the recorded Partition Coefficient for CC(=O)N(O)CCCCCNC(=O)CCC(=O)N(O)CCCCCNC(=O)CCC(=O)N(O)CCCCCN [Example 1] .
0.060
